Recorded values, source PubChem BioAssay (NCATS).

# Test system: PC26
# measurement-description: qHTS profiling for inhibitors of Plasmodium falciparum proliferation (AID 504749); note: nearly all actives have a fitted effect of over 60% in size
# reported-conditions: P. falciparum in erythrocytes, SYBR Green DNA, 72 h; series mostly up to 28.7 µM
# Protocol: NIH National Institute of Allergy and Infectious Diseases [NIAID] NIH Chemical Genomics Center [NCGC] […] Because mature erythrocytes lack DNA, only Plasmodium-derived DNA is detected. NCGC Assay Protocol Summary: The SYBR Green viability assay was adapted from a method described previously (Plouffe et al., 2008). […] The following morning, fluorescence intensity at 485(14) nm excitation and 535(25) nm emission wavelengths was measured on an EnVision (Perkin Elmer) plate reader. […]
Inconclusive results are not listed. Calls of active or inactive are those of the source. Calls come from the whole dose curve; as a rule, active = well fitted inhibition curve with a large enough effect; inconclusive = small, poorly fitted or top-dose-only effect; inactive = flat fitted curve, though single readings scatter.
Answer with one of the outcomes active, inactive

compound	group
COC(=O)C1C2CC3c4[nH]c5cc(OC)ccc5c4CCN3CC2CC(OC)C1OC (stereo unspecified)	inactive
CC(C)CCCC(C)C1CC(=O)C2=C3CCC4CC(O)CCC4(C)C3CCC21C (stereo unspecified)	inactive
C[C@]12CC[C@@H]3c4ccc(O)cc4CC[C@H]3[C@@H]1CCC2OC(=O)CCC1CCCC1 (stereo partly specified)	inactive
C=C(NCc1ccccc1)c1ccccc1O	inactive
CC(C)(C)NC[C@H](O)CSc1nc(-c2ccc(C(N)=O)s2)cs1	inactive

Please share the test call associated with CC(O)C1CCC2C3CCC4CC(O)CCC4(C)C3CCC12C (stereo unspecified) .
inactive

Assay result, entry "CC(C)C[C@@H](NC(=O)[C@@H](Cc1ccccc1)NC(=O)c1cnccn1)B(O)O" — outcome?
active

Hey, what did the test say about CC(=O)N[C@H]1[C@H](O[C@@H]2c3ccc(c(Cl)c3)Oc3cc4cc(c3O[C@@H]3O[C@H](CO)[C@@H](O)[C@H](O)C3C)Oc3ccc(cc3Cl)C[C@H]3NC(=O)[C@@H](N)c5ccc(O)c(c5)Oc5cc(O)cc(c5)[C@H](NC3=O)C(=O)N[C@H]4C(=O)N[C@H]3C(=O)N[C@@H]2C(=O)N[C@@H](C(=O)O)c2cc(O)cc(O[C@H]4O[C@H](CO)[C@@H](O)C(O)[C@@H]4O)c2-c2cc3ccc2O)O[C@H](CO)[C@@H](O)[C@@H]1O (stereo partly specified) ?
inactive

---

# measurement-description: Stat Signaling Pathway (AID 446);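 note: ME-180 cervical cancer cells given 40 pM IL-6 alongside compound; SIE-controlled beta-lactamase reporter measured as 460/530 nm FRET emission ratio; % is set by controls: 0 for no effect and ±100 for the full control effect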
# reported-conditions: ME-180 (cervical carcinoma) SIE beta-lactamase reporter, IL-6 stimulated, 5 h; at 17.2 µM (top of the series) unless noted
Results filed as inconclusive are left out.
In this section we review reported activity, negative = inhibition values for a set of compounds.
Response body: numeric value in %, unit text excluded.

Some compounds with known activity, negative = inhibition results, for comparison:
In [3]: df
Out[3]:
                                   compound  units_label  recorded_measurement
0  CCC(=NC(CC)CO)C1=C(O)CC(C)(C)CC1=O (stereo not given)            %                  12.8
1  N#Cc1c(N2CCOCC2)nc(N2CCCCC2)c2c1CCN(C1CCCCC1)C2            %                  4.09
2  CC(C)Cc1nc(N2CCOCC2)c(C#N)c2c1COC(C)(C)C2            %                  4.57
3              CCOC(=O)c1[nH]c2ccc(C)cc2c1N            %                 -1.27
4  CCCCSc1nnc2n(CCc3ccccc3)c(=O)c3c4c(sc3n12)COC(C)(C)C4            %                 -12.7
5  COC(=O)C(NC(=O)c1ccccc1)(Nc1nc(C)cs1)C(F)(F)F (stereo not given)            %                 -6.57
6            CC1(C)Cc2[nH]c(=S)c(C#N)cc2CO1            %                  27.9
7  Cc1c(/C(O)=C2\C(=O)C(=O)N(CCN(C)C)C2c2cccs2)cnn1-c1ccccc1 (stereo not given)            %                 -3.53

Requested field: activity, negative = inhibition. Item: "CCCC(=O)N1CCc2[nH]c3ccccc3c2C1"
-6.04

Need activity, negative = inhibition of "CC1(C)Cc2ccccc2-c2c1c(=O)n(-c1ccccc1)c1nnnn21" , thanks.
2.44
